Tested on: NIH3T3
Experiment: qHTS assay to identify novel small-molecules to repurpose for Merkel cell carcinoma treatment (AID 1296009); also: nearly all actives have a fitted effect of over 60% in size
Conditions: MCC and control cell lines, CellTiter-Glo viability, 72 h; at 44.8 µM (top of the series) unless noted
Inconclusive results are not listed. The source made the active and inactive calls. Calls follow the shape of the dose curve; as a rule, active = well fitted inhibition curve with a large enough effect; inconclusive = small, poorly fitted or top-dose-only effect; inactive = flat fitted curve, though single readings scatter.
measurement.kind: outcome

Record excerpt, results attached:
O=S(=O)(N=Cc1c(O)ccc2ccccc12)c1cccs1    inactive
CC(C)(C)NCC(O)c1ccc(O)c(CO)c1 (configuration not stated)    inactive
NC(N)=NC(=O)c1nc(Cl)c(N)nc1N    inactive
CNC[C@H](O)c1cccc(O)c1    inactive
Cc1[nH]c(=O)c(C#N)cc1-c1ccc2nccn2c1    inactive

**Query** Lab request: please report outcome under test system NIH3T3 for COc1cc(Oc2ccnc3cc(OC)c(OC)cc23)ccc1NC(=O)NC(C)c1nccs1 (configuration not stated)
**Result** inactive

**Query** Lab request: please report outcome under test system NIH3T3 for CC(C)NCC(O)COc1ccc(COCCOC(C)C)cc1 (configuration not stated)
**Result** inactive

**Query** Lab request: please report outcome under test system NIH3T3 for Clc1cccc(Cl)c1NC1=NCCN1
**Result** inactive

**Query** Lab request: please report outcome under test system NIH3T3 for CCn1c(-c2nonc2N)nc2c(C#CC(C)(C)O)ncc(OC[C@H]3CCCNC3)c21
**Result** inactive

**Query** Lab request: please report outcome under test system NIH3T3 for O=C(Nc1nc2ccccc2n1CCN1CCOCC1)c1cccc([N+](=O)[O-])c1
**Result** inactive

**Query** Lab request: please report outcome under test system NIH3T3 for CC(C[N+](C)(C)C)OC(N)=O (configuration not stated)
**Result** inactive

**Query** Lab request: please report outcome under test system NIH3T3 for O=C1CCC(N2C(=O)c3ccccc3C2=O)C(=O)N1 (configuration not stated)
**Result** inactive

====

Test: Quantitative High-Throughput drug screen in 47 multiple myeloma cell lines against the NCATS MIPE library collection: U266_ATCC cell viability assay (AID 1919864); also: nearly all actives have a fitted effect of over 35% in size
Details: U266 myeloma viability, CellTiter-Glo ATP luminescence, 48 h; series mostly up to 45.8 µM
Results filed as inconclusive are left out. Activity calls are given as the source filed them. Calls follow the shape of the dose curve; as a rule, active = well fitted cell-killing curve with a large enough effect; inconclusive = small, poorly fitted or top-dose-only effect, or effect the other way; inactive = no such curve, though single readings can be large or run the other way.
Hi! Could you answer with just one of these? TRUE (active), FALSE (inactive)

COc1cc2c(cc1OC)CN(CCc1ccc(NC(=O)c3cccc4c(=O)c5cccc(OC)c5[nH]c34)cc1)CC2    TRUE
NC[C@H](O)c1ccc(O)c(O)c1    FALSE
Cc1cc(Nc2nc(N[C@@H](C)c3ncc(F)cn3)ncc2Cl)n[nH]1    TRUE

**Query** State the result this test recorded for O=c1[nH]cnc2[nH]ncc12 .
**Result** FALSE

**Query** State the result this test recorded for CCn1c(-c2nonc2N)nc2c(C#CC(C)(C)O)ncc(OC[C@H]3CCCNC3)c21 .
**Result** TRUE

**Query** State the result this test recorded for CC(C=CC1=C(C)CCCC1(C)C)=CC=CC(C)=CC(=O)O .
**Result** TRUE

**Query** State the result this test recorded for Cn1cnc2c(F)c(Nc3ccc(Br)cc3Cl)c(C(=O)NOCCO)cc21 .
**Result** TRUE

**Query** State the result this test recorded for Cn1cnc([N+](=O)[O-])c1Sc1ncnc2nc[nH]c12 .
**Result** TRUE

**Query** State the result this test recorded for N=c1nc(N2CCCCC2)cc(N)n1O .
**Result** FALSE

**Query** State the result this test recorded for OC(CCN1CCCCC1)(c1ccccc1)C1CC2C=CC1C2 (configuration not stated) .
**Result** FALSE

**Query** State the result this test recorded for CCOC(=O)N1CCC(=C2c3ccc(Cl)cc3CCc3cccnc32)CC1 .
**Result** TRUE

**Query** State the result this test recorded for OCCC#Cc1nc(-c2ccc(F)cc2)c(-c2ccncc2)n1CCCc1ccccc1 .
**Result** FALSE

**Query** State the result this test recorded for O=C1CCC(N2C(=O)c3ccccc3C2=O)C(=O)N1 (configuration not stated) .
**Result** TRUE

**Query** State the result this test recorded for C#Cc1cccc(Nc2ncnc3cc(OCCOC)c(OCCOC)cc23)c1 .
**Result** TRUE

**Query** State the result this test recorded for NS(=O)(=O)c1cc2c(cc1Cl)NC=NS2(=O)=O .
**Result** FALSE

**Query** State the result this test recorded for CCC(C)n1ncn(-c2ccc(N3CCN(c4ccc(OC[C@H]5CO[C@](Cn6cncn6)(c6ccc(Cl)cc6Cl)O5)cc4)CC3)cc2)c1=O (some centres not stated) .
**Result** FALSE

**Query** State the result this test recorded for Cc1cc([C@@H](C)Nc2ccccc2C(=O)O)c2nc(N3CCOCC3)cc(=O)n2c1 .
**Result** TRUE

**Query** State the result this test recorded for Cc1ccccc1C(OCCN(C)C)c1ccccc1 (configuration not stated) .
**Result** FALSE

**Query** State the result this test recorded for CCc1ccc(CCOc2ccc(CC3SC(=O)NC3=O)cc2)nc1 (configuration not stated) .
**Result** FALSE

**Query** State the result this test recorded for Oc1ccc(C2CNCCc3c2cc(O)c(O)c3Cl)cc1 (configuration not stated) .
**Result** FALSE

====

Test: Quantitative High-Throughput drug screen in 47 multiple myeloma cell lines against the NCATS MIPE library collection: OPM2_DSMZ cell viability assay (AID 1919872); also: nearly all actives have a fitted effect of over 30% in size
Details: OPM2 myeloma viability, CellTiter-Glo ATP luminescence, 48 h; series mostly up to 45.8 µM
Records with an inconclusive call do not appear. The source made the active and inactive calls. The call rests on the fitted dose curve; in most records, active means well fitted cell-killing curve with a large enough effect; inconclusive means small, poorly fitted or top-dose-only effect, or effect the other way; inactive means no such curve, though single readings can be large or run the other way.
Hi! Could you answer with just one of these? TRUE (active), FALSE (inactive)

These recorded examples may help you get a feel for the data.
CCCn1c(=O)c2[nH]c(C34CC5CC3C[C@@H](C5)C4)nc2n(CCC)c1=O    FALSE
COc1ccc(-c2oc3cc(OC)ccc3c2C(=O)c2ccc(C#N)cc2)cc1    FALSE
CCN(c1ccccc1)c1cc(NC)[n+](C)c(C)n1    FALSE
Cc1oncc1C(=O)Nc1ccc(C(F)(F)F)cc1    FALSE

**Query** State the result this test recorded for Cc1[nH]c(=O)c(C#N)cc1-c1ccncc1 .
**Result** FALSE

**Query** State the result this test recorded for Nc1nc2ccc(OC(F)(F)F)cc2s1 .
**Result** TRUE

====

Test: qHTS of pediatric cancer cell lines to identify multiple opportunities for drug repurposing: Primary screen for MG 63 (6-TG R) cells (AID 1347105); also: nearly all actives have a fitted effect of over 50% in size
Settings: MG 63 (6-TG R) viability, CellTiter-Glo, 48 h; series mostly up to 46 µM
Results filed as inconclusive are left out. Calls of active or inactive are those of the source. The call rests on the fitted dose curve; in most records, active means well fitted cell-killing curve with a large enough effect; inconclusive means small, poorly fitted or top-dose-only effect; inactive means no such curve, though single readings can be large or run the other way.
Hi! Could you answer with just one of these? True (active), False (inactive)

These recorded examples may help you get a feel for the data.
OC[C@H](Cc1ccccc1)Nc1nc(Oc2ccc3c(c2)CCC3)nc2c1ncn2Cc1ccc(-c2ccccc2)cc1    False
c1ccc(-c2nn3c(c2-c2ccnc4cc(OCCN5CCOCC5)ccc24)CCC3)nc1    False
Nc1ccc(S(=O)(=O)Nc2ccnn2-c2ccccc2)cc1    False
COc1ccc2c3n(c(=NC(=O)c4cccnc4)nc2c1OC)CCN3    True
Cc1cc(Nc2nc(N[C@@H](C)c3ncc(F)cn3)ncc2Cl)n[nH]1    True

**Query** State the result this test recorded for Cc1ccccc1C(C(=O)NC1CCCC1)N(C(=O)Cn1cnc2ccccc21)c1cccc(F)c1 (configuration not stated) .
**Result** False

**Query** State the result this test recorded for Cc1c(C)c2c(c(C)c1O)CCC(C)(COc1ccc(CC3SC(=O)NC3=O)cc1)O2 (configuration not stated) .
**Result** False

====

Biological target: Atrial natriuretic peptide receptor 2 (Homo sapiens) (UniProt P20594)
Sequence (P20594 whole entry, looked up): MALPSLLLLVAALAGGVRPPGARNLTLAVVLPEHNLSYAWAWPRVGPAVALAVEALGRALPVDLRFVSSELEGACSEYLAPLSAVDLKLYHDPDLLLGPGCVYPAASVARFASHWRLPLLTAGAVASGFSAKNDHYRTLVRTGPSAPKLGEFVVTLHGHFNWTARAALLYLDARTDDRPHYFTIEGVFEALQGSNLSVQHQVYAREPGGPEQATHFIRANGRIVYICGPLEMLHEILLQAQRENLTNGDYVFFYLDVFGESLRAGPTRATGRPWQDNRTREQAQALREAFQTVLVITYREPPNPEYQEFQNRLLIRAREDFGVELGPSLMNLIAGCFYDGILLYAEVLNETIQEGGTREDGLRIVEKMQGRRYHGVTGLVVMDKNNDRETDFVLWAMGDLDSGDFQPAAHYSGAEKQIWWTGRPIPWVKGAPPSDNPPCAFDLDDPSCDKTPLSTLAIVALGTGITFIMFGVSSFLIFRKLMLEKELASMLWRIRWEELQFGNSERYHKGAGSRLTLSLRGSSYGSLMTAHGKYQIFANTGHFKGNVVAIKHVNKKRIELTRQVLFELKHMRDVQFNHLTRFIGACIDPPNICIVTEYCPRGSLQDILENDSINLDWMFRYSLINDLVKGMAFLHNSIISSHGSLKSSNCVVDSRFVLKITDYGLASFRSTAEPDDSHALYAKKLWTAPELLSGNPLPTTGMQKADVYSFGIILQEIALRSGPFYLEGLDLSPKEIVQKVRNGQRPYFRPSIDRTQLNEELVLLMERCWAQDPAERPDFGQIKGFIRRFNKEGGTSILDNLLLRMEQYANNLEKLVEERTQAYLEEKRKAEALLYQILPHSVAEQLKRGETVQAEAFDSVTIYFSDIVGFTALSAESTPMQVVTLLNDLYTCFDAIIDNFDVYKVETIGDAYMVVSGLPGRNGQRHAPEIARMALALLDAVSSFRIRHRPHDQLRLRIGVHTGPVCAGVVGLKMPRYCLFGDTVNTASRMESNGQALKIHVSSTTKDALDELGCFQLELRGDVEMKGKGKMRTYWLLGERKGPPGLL
Test: Natriuretic polypeptide receptor (hNpr2) antagonism - Pilot subtype selectivity assay (AID 1347050)
Conditions: NPR2-expressing cells, cGMP antagonist-mode read-out; series mostly up to 38.3 µM
From the text: F. Fan, B. F. Binkowski, B. L. Butler, P. F. Stecha, M. K. Lewis, K. V. Wood, Novel genetically encoded biosensors using firefly luciferase. ACS Chem Biol 3, 346-351 (2008). PROTOCOL TABLE (as described by Inglese J, Shamu CE and Guy RK. 2007) […] 7. […] GloSensor baseline pre-read luminescence measured using CCD-based camera (Viewlux). […] 10. […] GloSensor post-hNppC luminescence measured using CCD-based camera (Viewlux). […] 1. […] Cells counted with Invitrogen Countess (30,000,000 - 50,000,000 cells/flask). […]
Records with an inconclusive call do not appear. Active and inactive are the calls of the source. Calls follow the shape of the full dose curve.
Hi! Could you answer with just one of these? 1 for active, 0 for inactive

These recorded examples may help you get a feel for the data.
Cc1oncc1C(=O)Nc1ccc(C(F)(F)F)cc1    0
Cc1[nH]c(=O)c(C#N)cc1-c1ccc2nccn2c1    0
CNC[C@H](O)c1cccc(O)c1    0

**Query** State the result this test recorded for O=C(O)COCCN1CCN(C(c2ccccc2)c2ccc(Cl)cc2)CC1 (stereo not drawn) .
**Result** 1

**Query** State the result this test recorded for CC(=O)Oc1ccccc1C(=O)O .
**Result** 0

**Query** State the result this test recorded for Cc1[nH]c(=O)c(C#N)cc1-c1ccncc1 .
**Result** 0

**Query** State the result this test recorded for N=c1nc(N2CCCCC2)cc(N)n1O .
**Result** 0

**Query** State the result this test recorded for Cn1cnc([N+](=O)[O-])c1Sc1ncnc2nc[nH]c12 .
**Result** 0

**Query** State the result this test recorded for CCC(C)N(C)C(=O)c1cc2ccccc2c(-c2ccccc2Cl)n1 (stereo not drawn) .
**Result** 0

**Query** State the result this test recorded for NC(N)=NC(=O)c1nc(Cl)c(N)nc1N .
**Result** 0

**Query** State the result this test recorded for Clc1cccc(Cl)c1NC1=NCCN1 .
**Result** 0

**Query** State the result this test recorded for O=c1n(CCCN2CCN(c3cccc(Cl)c3)CC2)nc2ccccn12 .
**Result** 0

**Query** State the result this test recorded for OC(CN1CCC(Cc2ccc(F)cc2)CC1)c1ccc(Cl)cc1 (stereo not drawn) .
**Result** 0

Value source: PubChem BioAssay (NCATS)
